The values you see were collected from PubChem BioAssay (NCI).

List of TGI values.
Test system: OVCAR-8 ovarian
Assay Comment: NCI tumour cell line growth inhibition, 48 h

Compound	TGI
COc1ccc2c(c1)C(=O)c1c-2n(CCCN(C)C)c(=O)c2ccccc12	11.3 µM
COC(=O)CCC(=O)c1ccc2c(c1)CCC2	> 100 µM
Cc1[nH]c(=O)nc2nc3cc(Cl)cc(Cl)c3c(NC(C)(CO)CO)c12	> 100 µM
C=C(CCCCC)CN1CCCC1C(C)=O (stereo not drawn)	> 95.1 µM
N#C/C(=C\c1ccc(F)cc1)c1nc(-c2cc3ccccc3oc2=O)cs1	71.9 µM
CCOC1OC(COC(=O)C(C)(C)C)C(O)CC1n1cc(C)c(=O)[nH]c1=O (stereo not drawn)	> 100 µM
COC(=O)c1cc2c(=O)n(C)c3ccccc3n2c1C(=O)OC	> 100 µM
CN=C1Nc2ccccc2C(=O)N2CSCC12 (stereo not drawn)	> 100 µM
CC1(C)OC2C(CCP(=O)(O)O)OC(c3nc(C(N)=O)cs3)C2O1 (stereo not drawn)	> 100 µM
N#Cc1ccc(C(O)C(F)(F)c2nc3ccccc3o2)cc1 (stereo not drawn)	> 100 µM
CC(C)CC(NC(=O)C(C)(CI)Cc1ccccc1)C(=O)Nc1ccccc1 (stereo not drawn)	> 100 µM
COc1ccc(S(=O)(=O)N2C(=O)CCC2C(=O)NC(N)=O)cc1 (stereo not drawn)	> 100 µM
C=C[C@@H](C)[C@]1(C(=O)OC)CCCC12OCCO2	> 100 µM
CSc1ccc2c(cc1=O)[C@@H](NC(=O)c1cccc([N+](=O)[O-])c1)CCc1cc(O)c(O)c(O)c1-2	> 100 µM
O=C1C=C(Nc2ccc(Cl)cc2Cl)c2ccccc2C1=O	> 100 µM
COc1cccc(/C=N/n2c(Cc3ccccc3)n[nH]c2=O)c1	> 100 µM
Cc1c(C)c2ccc3oc4ccccc4c3c2oc1=O	> 100 µM
NC(=O)NNC(=O)CCn1[nH]c(=O)c(Cl)c(Cl)c1=O	> 100 µM
CC[C@H](C)[C@H](NC(=O)[C@H]1CCCCN1C)C(=O)N(C)[C@H](C[C@@H](OC(C)=O)c1cccc(C(=O)N[C@@H](Cc2ccccc2)C[C@H](C)C(=O)OC)n1)C(C)C	> 25 µM
COc1ccccc1Nc1cc(O)c2c(=O)cc(-c3ccccc3)oc2c1	> 100 µM
CNC(=O)OCc1nc(SC)n(C)c1CO	> 100 µM
COc1cccc2c1c1ccc3c(c1n2C)C(=O)C=CC3=O	29.7 µM
CC(C)N(C(=O)C12C3C4C5(C#N)C3C1(C#N)C5C42C#N)C(C)C (stereo not drawn)	> 100 µM
COc1ccc(CNc2cnc3cc(N)ccc3n2)cc1	> 100 µM
Oc1c(Br)cc(/C=C/c2ccnc(/C=C/c3cc(Br)c(O)c(Br)c3)c2)cc1Br	83.9 µM
O=c1oc2ccc(I)cc2c(=O)n1-c1ccc(Br)cc1F	11.8 µM
Cc1nc2sccn2c1C(=O)NN	> 100 µM
Cc1ccc(O)c(Cc2nc3ccccc3nc2-c2cccc(Cl)c2)c1	> 100 µM
Fc1ccc(-c2c(-c3ccncc3)nc3n2CCS3)cc1	> 25 µM
COc1cc(/C=C2\CC3C4CC=C5C[C@@H](OC(C)=O)CC[C@]5(C)C4CC[C@]3(C)C2=O)ccc1OCCN1CCCCC1 (stereo partly drawn)	28.2 µM
O=C1C2C(C(=O)N1c1ccccc1)C1(c3ccccc3)CCC2(C(=O)c2ccccc2)O1 (stereo not drawn)	> 10 µM
CC1(C)OC2C(COC(c3ccccc3)(c3ccccc3)c3ccccc3)OC(c3c[nH]c4c(N)ncnc34)C2O1 (stereo not drawn)	21.7 µM
CCc1nc(N)nc(N)c1-c1ccc(Cl)c([N+](=O)[O-])c1	> 100 µM
C=CN(C(=O)N1CCN(c2cc3c(cc2F)c(=O)c(C(=O)O)cn3C2CC2)CC1)c1nc(-c2ccc(OC)cc2)cs1	15.5 µM
COc1ccc(N=c2oc3ccccc3cc2C(N)=O)cc1	> 100 µM
NNC(=O)C(=O)N/N=C(\CCCC(=O)Nc1ccc(Cl)cc1)CC(=O)c1ccc(F)cc1	> 100 µM
Cc1ccc([N+](=O)[O-])cc1S(=O)(=O)Nc1ccc(C2=NN(S(=O)(=O)c3cc([N+](=O)[O-])ccc3C)C(c3ccccc3)C2)cc1 (stereo not drawn)	> 100 µM
CC(/C=C/C(=O)NO)=C\C(C)C(=O)c1ccc(N(C)C)cc1 (stereo not drawn)	41.6 µM
